Substrate: F protein of hMPV B virus (human metapneumovirus subtype B)
test-details: cell-based or functional assay
Would you kindly list PRNT IC50 for each of these binders?
Note: unit µg/mL is implicit; provide only the numeric part.

Prompt: Consider the binder M3E03 (antibody, V domains shown) VH: QVQLVESGGGVVQPGRSLRLSCVASGFPFDSFAMHWVRQAPGKGLEWVAIVWYDGGDKFYSESVKGRFSISRDNSRNTVFLQMNSLRAEDTAVYYCARGMITFDYWGPGTLVTVSS VL: EIVLTQSPGTLSLSPGERATLSCRASQNVDSSYLAWYQQKPGQAPRLLMYGASTRVAGIPDRFSGSGSGTDFTLTISRLEPEDFVVYYCQQYGTSPTWTFGQGTKVEIK and give its measured PRNT IC50.
Response: 0.0762

Prompt: Need PRNT IC50 of M6E10 (antibody, V domains shown) VH: QVQLVQSGAEVKKPGSSVKVSCNASGGIFDTNVINWVRQAPGQGLEWMGGIIPPFGTALYAHQFQGRLTLTVDESTNTAYMDLSSLRSDDTAVYFCARDRTVIKYADGMDVWGQGTTVTVSS VL: DIQMTQSPSSLSASVGDKVAITCRASQTISPYLNWYQQKPGKAPNLLIYGTNKLQSGVPLRFSGSGSGTDFTLTINGLQPEDFATYFCQQSHTTPLTFGGGTKVEIKR , thanks.
Response: 0.0104

Prompt: Report PRNT IC50 for M2B07 (antibody, V domains shown) VH: EVQLVESGGGLVRPGGSLRLSCAASGFTFNNYWMHWVRQAPGKGLVWVSHVKSDGSITNYADSVKGRFTISRDNAKNTLYLEMSSLRVEDTAVYYCARESRPYDPLTGSHPDAFDIWGQGTMVTVSS VL: DIVMTQSPDSLAVSLGERATINCKSSESIFYYSNSKSYLAWYRQKPGQPPKLLIYWASTRESGVPDRFSGSGSGTDFTLTISSLQPEDVAVYYCQQYYTNPRTFGQGTRLEIK please.
Response: 0.426

Prompt: Suppose we examine the binder M4A02 (antibody, V domains shown) VH: EVQLVESGGGLVEPGGSLRLSCAASGFMFTSYAMHWVRQAPGRGLEWVSSITGGGNFVEYAVSVQGRFTVSRDNNQNSLYLQMNSLRVEDTAMYYCAREDYNSGANLHWFDPWGQGTLVTVSS VL: QSVLTQPPSVSGAPGQRVTISCTGSSSNIGAFFDVHWYSHLPGTAPKLLIYGDRNRPSGVPERFSGSKSGASASLTITGLRAEDEADYYCQSYDRGLSAWVFGGGTRVTVL ; what PRNT IC50 value has been reported?
Response: 0.0927

Prompt: Could you share which PRNT IC50 value was measured for M4A08 (antibody, V domains shown) VH: EVQLVESGGALVRPGGSLRVSCEASGFNFRTHWMHWVRQAPGKGLVWVARTNGDGSVTNYADSVKGRFTFFRDNAKNTLFLQMTSLRVDDTAVYYCARERLDYSSTRGHFPGDFDSWGQGTLVTVSS VL: DIVMTQSPDSLAVSLGERATINCKSSESVLYTSNSKNYLAWYQQKPGHPPKVLIYWASTRESGVPDRFSGSGSGTDFSLSISSLQAEDVAVYYCQQYFTIPRTFGQGTKVEIK ?
Response: 0.344
